Molecular target: Torsin-1A (Homo sapiens) (UniProt O14656)
Sequence (O14656 whole entry, looked up): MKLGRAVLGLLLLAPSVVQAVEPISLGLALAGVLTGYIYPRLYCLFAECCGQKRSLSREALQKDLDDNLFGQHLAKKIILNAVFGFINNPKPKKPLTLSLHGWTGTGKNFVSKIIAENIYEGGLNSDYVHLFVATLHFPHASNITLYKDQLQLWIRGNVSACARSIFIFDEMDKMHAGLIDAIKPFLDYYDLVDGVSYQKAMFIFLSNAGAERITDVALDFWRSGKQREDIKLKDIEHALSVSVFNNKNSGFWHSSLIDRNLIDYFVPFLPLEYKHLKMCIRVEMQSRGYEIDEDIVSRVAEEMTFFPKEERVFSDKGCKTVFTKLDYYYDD
Assay: small-molecule binders of mutant TOR1A in lysate, primary screen, cell lysate, small-molecule microarray, COS7 lysate, 635/667 nm fluorescence (AID 1150);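 further: score pools 667 nm emission and signal to noise measuring lysate protein binding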
Conditions: COS7 hTOR1A mutant lysate, 635 nm fluorescence, higher = more signal

>  <Compound String>
CCOC(=O)C1=C[C@@H](C(C)(C)C)N(S(=O)(=O)c2ccc(C)cc2)[C@H]1c1ccccc1

>  <composite z-score>
0.611

$$$$
>  <Compound String>
COCCOC(=O)N1C(=O)[C@@]2(c3cc(C#Cc4ccc(OC)cc4)ccc31)[C@H](c1ccc(OCCO)cc1)N1[C@H](c3ccccc3)[C@H](c3ccccc3)OC(=O)[C@H]1[C@@H]2C(=O)Nc1nc2ccccc2s1

>  <composite z-score>
0.461

$$$$
>  <Compound String>
COC(=O)[C@@]1(Cc2ccc(F)cc2)[C@H]2c3cc(C(=O)N4CCCC4)n(CC4CC4)c3C[C@H]2CN1C(=O)c1ccccc1

>  <composite z-score>
1.03

$$$$
